meta.source: patent US20250243282A1

Target: Recombinant human Gal3 (rhGal3) (TrueBinding, #QC200361) (human, UniProt P17931 2-250); further: test concentration or dose not given here
Test: cell-based or functional assay
Answer each item with its documented % inhibition of TNFα secretion.
One number for each entry, in %.

- binder: "847.28D1 (antibody, V domains shown) VH: QVQLVETGPGLVAPSQSLSITCTVSGFSLTSYGVHWIRQSPGKGLEWLGTIWAGGSTDYNSPLMSRLSISKDNSKNQVFLKMNSLQIDDTAIYYCASPPSGYDYDVFASWGQGTLVTVSA VL: DIRMTQSPASLSASVGETVTITCRASGNIHNYLAWYHQKQGKSPQLLVYNVKTLADGVPSRFSGSGSGTQFSLKINSLQPEDFGTYYCQHFWSIFPTFGGGTKLEIK"
  % inhibition of TNFα secretion, %: 80.5

Kindly consider the entry below.
Data request, read-out % inhibition of TNFα secretion, for 13A12.2E5 (antibody, mouse IgG2a, V domains shown) VH: QIQLVQSGPELKKPGETVKISCKTSGYKFKTYVMSWVKQAPGKALKWMGWINTYSGVPTYADDFKGRFAFSLETSASTAYLEIINLKNEDTATYFCARDGNYGDPMDYWGQGTSVTVSS VL: DVVMTQTPLTLSVAIGQPASISCKSSQSLLYTNGKTYLNWLLQRPGQSPKRLIYLLSKLDSGVPDRFSASGSGTDFTLKISRVEAEDLGVYYCLQSTHFPLTFGAGTKLEMKR
61.8
